# testedOn: H. sapiens SLC2A9 variant 2 (GLUT9B) (Homo sapiens, UniProt Q9NRM0)
# Sequence (Q9NRM0 1-511 isoform Q9NRM0-2): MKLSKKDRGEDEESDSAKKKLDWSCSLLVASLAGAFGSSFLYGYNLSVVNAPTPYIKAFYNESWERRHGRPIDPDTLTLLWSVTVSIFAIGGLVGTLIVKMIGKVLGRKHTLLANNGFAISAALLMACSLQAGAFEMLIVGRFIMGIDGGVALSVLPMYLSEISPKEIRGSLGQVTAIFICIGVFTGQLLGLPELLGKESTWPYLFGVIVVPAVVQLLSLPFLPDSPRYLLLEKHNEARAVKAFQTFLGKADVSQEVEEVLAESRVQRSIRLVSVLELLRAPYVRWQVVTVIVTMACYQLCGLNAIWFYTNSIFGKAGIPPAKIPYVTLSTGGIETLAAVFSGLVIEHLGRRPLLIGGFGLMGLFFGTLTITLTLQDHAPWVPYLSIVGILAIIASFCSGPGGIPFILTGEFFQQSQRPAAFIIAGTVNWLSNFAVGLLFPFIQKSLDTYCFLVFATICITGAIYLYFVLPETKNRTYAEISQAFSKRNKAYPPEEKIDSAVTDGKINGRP
# assaySummary: GLUT9 functional assay: uric acid uptake in HEK293T cells, allantoin formation by MS/MS as proxy of GLUT9B inhibition
# Assay type: cell-based
# condition: 15 minute assay; HEK293T cells stably expressing GLUT9B and transiently A. oryzae uricase; uric acid 0.3 mM, 37° C.; read-out: 15 min IC50
pIC50: −log10 of the molar value.
reportedMetric: pIC50

{"cpdSmiles": "COCCN(C)c1ccc(-c2ncc(CCC(F)(F)F)nc2N2CCC(C(=O)O)CC2)cc1", "reportedMetric": "pIC50", "observedMeasurement": "5.70 to 6.30"}
{"cpdSmiles": "N#CC1(C(=O)O)CCN(c2nc(CCC(F)(F)F)cnc2-c2cc(F)c3occc3c2)CC1", "reportedMetric": "pIC50", "observedMeasurement": "5.70 to 6.30"}
{"cpdSmiles": "CCCCc1cnc(-c2ccc(OC)cc2)c(N2CCC(C(=O)O)CC2)n1", "reportedMetric": "pIC50", "observedMeasurement": "> 6.30"}
{"cpdSmiles": "O=C(O)CCC1CN(c2nc(CCC(F)(F)F)cnc2-c2cc(F)c3occc3c2)C1", "reportedMetric": "pIC50", "observedMeasurement": "5.70 to 6.30"}
{"cpdSmiles": "COc1ccc(-c2ncc(CCC(F)(F)C(F)(F)F)nc2N2CCC(C(=O)O)CC2)cc1", "reportedMetric": "pIC50", "observedMeasurement": "> 6.30"}
{"cpdSmiles": "CC(F)(F)CCc1cnc(-c2ccc3c(c2)OCO3)c(N2CCC(C(=O)O)CC2)n1", "reportedMetric": "pIC50", "observedMeasurement": "> 6.30"}
{"cpdSmiles": "COCc1cnc(-c2cc(F)c3occc3c2)c(N2CCC(C(=O)O)CC2)n1", "reportedMetric": "pIC50", "observedMeasurement": "5.70 to 6.30"}
{"cpdSmiles": "O=C(O)C1CCN(c2nc(CCCC(F)(F)F)cnc2-c2ccc3c(c2)OCCO3)CC1", "reportedMetric": "pIC50", "observedMeasurement": "5.70 to 6.30"}
{"cpdSmiles": "CCCCc1cnc(-c2cc(F)c3c(c2)OCO3)c(N2CCC(C(=O)O)CC2)n1", "reportedMetric": "pIC50", "observedMeasurement": "> 6.30"}
{"cpdSmiles": "O=C(O)C1CCN(c2nc(CCCC(F)(F)F)cnc2-c2ccc3ncoc3c2)CC1", "reportedMetric": "pIC50", "observedMeasurement": "5.70 to 6.30"}
{"cpdSmiles": "O=C(O)C1CCN(c2nc(CCC(F)(F)F)cnc2-c2ccc(OC(F)F)cc2)CC1", "reportedMetric": "pIC50", "observedMeasurement": "5.70 to 6.30"}
{"cpdSmiles": "COCCOc1ccc(-c2ncc(COCC(F)(F)F)nc2N2CCC(C(=O)NS(C)(=O)=O)CC2)cc1", "reportedMetric": "pIC50", "observedMeasurement": "< 5.70"}
{"cpdSmiles": "O=C(O)C1CCN(c2nc(COCC(F)(F)F)cnc2-c2ccc(OC3CC3)c(F)c2)CC1", "reportedMetric": "pIC50", "observedMeasurement": "5.70 to 6.30"}
{"cpdSmiles": "O=c1[nH]c(C2CCN(c3nc(COCC(F)(F)F)cnc3-c3cc(F)c4occc4c3)CC2)no1", "reportedMetric": "pIC50", "observedMeasurement": "> 6.30"}
{"cpdSmiles": "COCC(COC)Cc1cnc(-c2ccc(OCC3CC3)cc2)c(N2CCC(C(=O)O)CC2)n1", "reportedMetric": "pIC50", "observedMeasurement": "< 5.70"}
{"cpdSmiles": "O=C(O)C1CCN(c2nc(CCCC(F)(F)F)cnc2-c2ccc(OCC3CC3)cc2)CC1", "reportedMetric": "pIC50", "observedMeasurement": "> 6.30"}
